Tested on: Trypanosoma brucei
assayOverview: Trypanosoma brucei 72 hour study
Format: functional, organism-based
Parameters: scale not given: in the data most compounds retested in dose-response had high values
details: 30.3 µM; […]
Among all 66,000 compounds or so, about 960 (1.5%) showed an effect of 50% or more. The sample holds strong results, similar compounds and a random draw of the others, so the mix is not that of the screen.
propertyLabel: Percent Effect (%)
Entry rule: numbers only, all in %.

Field: example entries. Status: answers known.
molecule	Percent Effect [%]
Cl.Cl.O=C(CN1CCN(CC(O)C2CC2)CC1)NCc1ccccc1Cl (centres undefined)	-15.94
COc1cccc(CCC(=O)N2CCC[C@@H](N)[C@@H]2c2ccccc2F)c1.Cl	35.53
CCOCC1CN(C(=O)Cc2ccccn2)Cc2cnn(C)c21.O=C(O)C(F)(F)F.O=C(O)C(F)(F)F (centres undefined)	-7.447
COc1ccccc1-c1ncc(CN2C[C@H](O)[C@@H](N3CCCC3)C2)s1	20.14
Cn1ccc(CN2CCC3(CCCN3CC3CC3)CC2)n1.O=C(O)C(F)(F)F.O=C(O)C(F)(F)F	-89.65
CCn1nc(C)c(CN(CCCOC)Cc2ccccn2)c1C.O=C(O)CC(O)(CC(=O)O)C(=O)O	-0.7195
CC(C)NC1CCc2[nH]c(=O)ccc2C1.O=C(O)C(F)(F)F (centres undefined)	-14.11
O=C(NCC1CC1)[C@@H]1CC[C@@H]2[C@@H](CCN2Cc2ccco2)O1.O=C(O)C(F)(F)F	-31.37

For reference, reported Percent Effect for COc1cccc(S(=O)(=O)CCN2CCN(CC(F)F)CC2)c1 stands at 100.9

Consider CN(C)C(=O)COCc1cncc2c1CCN(Cc1ccccn1)C2.O=C(O)C(F)(F)F.O=C(O)C(F)(F)F . Its measured Percent Effect is -50.95

Form field Percent Effect, entry N[C@@H]1CCCN(C(=O)Cc2c[nH]c3ccccc23)[C@H]1c1ccccc1F : 82.48

Form field Percent Effect, entry O=C(O)C(F)(F)F.O=C([C@H]1C[C@H]2OCC[C@H]2N(Cc2ccc(F)cc2)C1)N1CCCCO1 : -288.9

Notebook: CC(C)c1ncc(CN2CCC(CO)C2)cn1.O=C(O)CC(O)(CC(=O)O)C(=O)O (centres undefined) , Percent Effect read as -24.24

What the record says about Cc1cn2c(n1)C(CNCC1=Cc3ccccc3OC1)CCC2 (centres undefined) : Percent Effect is 49.61

// recorded Percent Effect for CCOCC(=O)N1C[C@@H]2CCN(c3cnccn3)C[C@@H]2C1.O=C(O)C(F)(F)F : -17.39

// COc1cccc([C@@]2(O)CC[C@@H]3CN(C(=O)c4ccn(C)n4)C[C@@H]32)c1 : Percent Effect value = 1.75

For record Cc1csc(CN2CCC3(CC2)COC(COCC2CC2)C3)n1.O=C(O)C(F)(F)F (centres undefined) the listed Percent Effect is -1.163

Noted for COc1c(C2CCCN2C(=O)c2ccc(C#N)c(C)n2)c(C)nn1C (centres undefined) : its Percent Effect reads 0.3708

Measured Percent Effect of CC(C)c1cc(NC(=O)CN2CCCC2c2noc(C(C)C)n2)on1 (centres undefined) : 0.3759

---

System: Trypanosoma brucei
assayOverview: Trypanosoma brucei 72 hour study
Assay type: functional, organism-based
Set-up: scale not given: in the data most compounds retested in dose-response had high values
details: 30 µM; 30.03 µM
The campaign covered roughly 66,000 compounds. About 960 (1.5%) showed an effect of 50% or more. Only a selection was taken, and strong results are over-represented in it overall.
propertyLabel: Percent Effect (%)
Give your result in % as a bare value.

Example cases with answers are listed next.
compound	Percent Effect, %
CN(C)CCNC(=O)c1cc(-c2cnc(N3CCCC3)nc2)cn1C.O=C(O)C(F)(F)F	97.37
Cc1ccc(C#N)c(N2CCC(c3nccn3CCN(C)C)CC2)n1	57.26

Value (Percent Effect, Trypanosoma brucei) for record COc1ccc(CN2CCC3(CC2)CCN(c2cnn(C)c2)C3=O)cc1.O=C(O)C(F)(F)F = 29.53

The measured Percent Effect that O=C(c1ccco1)N1C[C@H]2CN(Cc3cccc(F)c3)C(=O)[C@H]2C1 showed for Trypanosoma brucei is -14.72

Simply: O=C(CO)N1C[C@H]2CN(Cc3cccc(F)c3)C(=O)[C@H]2C1 , Trypanosoma brucei, Percent Effect = -7.119

Trypanosoma brucei data for COCCN1CCCC2(CCN(c3cc(C)c(C#N)c(C)n3)C2)C1=O (stereo not given) ; its Percent Effect: 50.02

Record Nc1ccnc(N2C[C@@H]3CC[C@H](C2)N(CC2CCC2)C3=O)n1 ; system Trypanosoma brucei; Percent Effect = -6.843

The compound CCOCC1CN(c2ccncn2)Cc2cnn(CC)c21.O=C(O)C(F)(F)F.O=C(O)C(F)(F)F (stereo not given) , when measured on Trypanosoma brucei, yielded Percent Effect of 24.08

Trypanosoma brucei data for Cc1cc(N2CCC3(CCCN(CCO)C3=O)C2)nc(C)c1C#N (stereo not given) ; its Percent Effect: -51.69

The value of Percent Effect recorded for CN(C)CCn1ccnc1C1CCN(c2cc(N)nc(N)n2)CC1 when tested on Trypanosoma brucei reads 1.166

---

Test system: Trypanosoma brucei
assayOverview: Trypanosoma brucei 72 hour study
Format: functional, organism-based
Design: scale not given: in the data most compounds retested in dose-response had high values
details: 30.3 µM; […]
Among all 66,000 compounds or so, about 960 (1.5%) showed an effect of 50% or more. The full list was thinned out, with strong results kept by preference.
propertyLabel: Percent Effect (%)
Numbers only; they are read as %.

molecule	displayUnit	Percent Effect
CC(=O)N1CCC2(CC1)C(=O)N(CC1CCN(C)CC1)c1ccccc12.O=C(O)C(F)(F)F	%	-5.968
CCN(Cc1noc(CC(C)C)n1)Cc1ccccc1Cl	%	100
COCCNc1ccc(CC2CCCNC2)cn1.Cl (stereo unspecified)	%	0.7781
Cc1cccc(CN2CCc3cc(C(=O)O)c(N(C)C)nc3CC2)n1.O=C(O)C(F)(F)F.O=C(O)C(F)(F)F	%	-4.937
COc1c(C)cc(CNCc2ccnc(N3CCOCC3)c2)cc1C.Cl	%	15.01

Please fill in: Percent Effect reported for CCc1ccc(-c2cc(C(F)(F)F)nc(N3CCC(N)CC3)n2)cc1 = 100.3

Summary for this molecule, O=C(O)C(F)(F)F.O=C([C@H]1CCCO1)N1CCN(CCn2cccn2)c2ncccc2C1 : Percent Effect is -89.38

Entry CCN(Cc1noc(CC(C)C)n1)Cc1ccccc1C — recorded Percent Effect = 13.68

Please fill in: Percent Effect reported for CN(C)c1ncc(C(=O)N2C[C@H]3C[C@H](Oc4ccccc4)C[C@H]3C2)cn1 = 8.214

Just so you know, measured Percent Effect for CCN1C(=O)CCC12CCCN(Cc1ccc(F)cc1)CC2.O=C(O)C(F)(F)F (stereo unspecified) came out at -27.1

---

Tested on: Trypanosoma brucei
assayOverview: Trypanosoma brucei 72 hour study
Format: functional, organism-based
Design: scale not given: in the data most compounds retested in dose-response had high values
details: 10 µM
Screen size: about 66,000 compounds; about 960 (1.5%) showed an effect of 50% or more. The list comes from a sample in which strong results are over-represented; it also holds close analogues and randomly drawn compounds.
Consider the following partition of reported Percent Effect into named classes: zone 1 (below -40%), zone 2 (-40% to below -20%), zone 3 (-20% or more)

Check out these entries, answers already filled in.
compound	assayedTarget	classLabel
Cc1ccc(F)cc1S(=O)(=O)Nc1ccc2c(C(=O)O)c[nH]c2c1	Trypanosoma brucei	zone 2
c1ccc(-n2ccc(CN3CCCC3Cn3cncn3)n2)cc1 (configuration not stated)	Trypanosoma brucei	zone 1
CC(C)(C)NC(=O)CCOc1cccc(F)c1	Trypanosoma brucei	zone 1
CCCn1[nH]cc/c1=N\C(=O)CN1CCc2cnc(C(C)C)nc2C1	Trypanosoma brucei	zone 2
CCNc1cc2c(nn1)CCN(C(=O)c1cc3cc(C)ccc3o1)C2	Trypanosoma brucei	zone 3
CC(C)c1nc(CN2CCCC2c2cnn(C)c2)cs1 (configuration not stated)	Trypanosoma brucei	zone 3

Could you place CC(NC(=O)NCc1cc(Br)cs1)c1ccccn1 (configuration not stated) in its proper category? Many thanks.
zone 1

Textbook exercise: identify the category of the compound given here, Cc1nc(NC(=O)c2ccc(-n3ncc(C#N)c3N)cc2)sc1C , according to its measured value.
zone 2

Textbook exercise: identify the category of the compound given here, Cc1cc(C(=O)N2CCc3nnc(N)cc3C2)c(C)n1-c1ccccc1 , according to its measured value.
zone 2

Field: class (Percent Effect) — entry: CC(=O)N1CCC(Nc2cc(F)ccc2OCC2CCCO2)CC1 (configuration not stated)
zone 2

Exercise: read the entry CCOc1ncccc1CNC(=O)NC(C)Cn1cccn1 (configuration not stated) and state which class it falls under.
zone 3

---

Test system: Trypanosoma brucei
assayOverview: Trypanosoma brucei 72 hour study
Format: functional, organism-based
Set-up: scale not given: in the data most compounds retested in dose-response had high values
details: 30 µM; 30.03 µM
Among all 66,000 compounds or so, about 960 (1.5%) showed an effect of 50% or more. What follows is part of a selection rich in strong results, with near analogues and random picks from the rest.
Quick reference: Percent Effect of the listed items.
Record the result as a number with its unit.

Recorded Percent Effect (compound N#Cc1ccc(C(=O)NCCCNc2ccc(C(F)(F)F)cn2)cc1 ): 0.4176%

Percent Effect reading for N#CC1(C(=O)NCCCNc2ccc(C(F)(F)F)cn2)CCCC1 : 104.7%

In plain terms, CCCc1cc(=O)[nH]c(-n2nc(C3CC3)cc2N)n1 has a documented Percent Effect of 78.26%

Form: compound = O=C(CC1CC1)NCc1cn2c(n1)CN(CC1CC1)CC2.O=C(O)C(F)(F)F ; Percent Effect = 14.47%

Measured Percent Effect of COc1ccc(CNC(C)c2ccc(Cl)c(Cl)c2)c(OC)c1OC (stereo unspecified) : 20.68%

Percent Effect measured on CC(C)NC(=O)C1CN(Cc2ccc(F)cc2)CC12CCOCC2.O=C(O)C(F)(F)F (stereo unspecified) = -12.09%

Documented Percent Effect of Cc1ccc(CN2C[C@@H]3CCCO[C@@H]3[C@H](N(C)Cc3ccco3)C2)s1.O=C(O)C(F)(F)F.O=C(O)C(F)(F)F : 26.16%

GET /value?item= CC(=O)c1ccc(N2CCN(C(=O)NC(C)c3ccc(C)o3)CC2)cc1 (stereo unspecified) &field=Percent Effect returns 19.85%

Sourced from ChEMBL document CHEMBL3988442
